Value source: ChEMBL document CHEMBL5352470

experiment: Metabolic stability in human liver microsome assessed as half life measured upto 60 mins by LC-MS/MS analysis; assay type: ADME; conditions: liver microsomes
recorded-endpoint: half-life (min)

[
  {
    "compound": "CC(C)NCC(O)COc1cccc2ccccc12 (stereo not drawn)",
    "half-life / min": 47
  }
]

a. CCOc1ccc2ccc(=O)oc2c1
b. COc1cc(C(=O)c2ccn(-c3ncnc4[nH]ccc34)c2)cc(OC)c1OC
Lab notebook, comparison: a versus b , higher half-life goes to which? Select an item and report its label.
b

====

test: Metabolic stability in mouse liver microsome assessed as intrinsic clearance measured upto 60 mins by LC-MS/MS analysis; format: ADME; details: liver microsomes, read-out: CLH
recorded-endpoint: microsomal CLint (µL/min/mg)
Hi! Could you send only the number? It should be in µL/min/mg, unit omitted.

Tell me the measured microsomal CLint of COc1cc(C(=O)c2ccn(-c3ncnc4[nH]ccc34)c2)cc(OC)c1OC , please.
96

====

assay: Metabolic stability in human liver microsome assessed as intrinsic clearance measured upto 60 mins by LC-MS/MS analysis; assay type: ADME; conditions: liver microsomes, read-out: CLH
recorded-endpoint: microsomal CLint (µL/min/mg)
Field format: number, assumed µL/min/mg, no unit text.

For COc1cc(C(=O)c2ccn(-c3ncnc4[nH]ccc34)c2)cc(OC)c1OC , what is its reported microsomal CLint?
28

====

system: TERT-RPE1; assay: Antiproliferative activity against human TERT-RPE1 cells assessed as inhibition of cell growth measured for 48 hrs by MTT assay; type: functional, cell-based; settings: RPE-1, 48 h
recorded-endpoint: pIC50
# log scale: pIC50 equals minus log10 of the concentration in mol/L

Name the recorded pIC50 for COc1cc(C(=O)c2ccn(-c3ncnc4[nH]ccc34)c2)cc(OC)c1OC .
7.00

====

test: Toxicity in human T cells derived from human PBMC assessed as viable cells at 0.1 uM measured for 72 hrs by annexin V-FITC and PI staining based flow cytometry analysis (reference value: 66.5 to 77.5 %); type: cell-based, T-cell; conditions: read-out: Activity
recorded-endpoint: viability at 72 h, 0.1 µM (%)
Quick note: give the figure in %, leave out the unit.

Consider the compound COc1cc(C(=O)c2ccn(-c3ncnc4[nH]ccc34)c2)cc(OC)c1OC and give its measured viability at 72 h, 0.1 µM.
68.1

====

assay: Toxicity in human T cells derived from human PBMC assessed as viable cells at 2.5 uM measured for 72 hrs by annexin V-FITC and PI staining based flow cytometry analysis (reference value: 66.5 to 77.5 %); format: cell-based, T-cell; details: read-out: Activity
recorded-endpoint: viability at 72 h, 2.5 µM (%)
Give the quantity in %, number only.

Value lookup for viability at 72 h, 2.5 µM; key = COc1cc(C(=O)c2ccn(-c3ncnc4[nH]ccc34)c2)cc(OC)c1OC
64.3

====

Listing of entries alongside the reported IC50.
tested on: TMD8; assay: Antiproliferative activity against human TMD8 cells assessed as inhibition of cell growth measured for 72 hrs by MTT assay; type: functional, cell-based; settings: TMD8, 72 h
Report only the number, with the unit nM understood.

[
  {
    "smiles-representation": "COc1ccc(/C=C\\c2cc(OC)c(OC)c(OC)c2)cc1O",
    "IC50 [nM]": 0.66
  }
]

Proceeding to the next compound to report its IC50.
Return reported IC50; argument: COc1cc(C(=O)c2ccn(-c3ncnc4[nH]ccc34)c2)cc(OC)c1OC
21.6
